The reported measurements were obtained from patent US12421212B2.

Biological target: IL-17A/A (Homo sapiens)
Construct: purchased Genscript Z03228
Test: IL-17A/A HEK-Blue Cell Assay
Format: cell-based
Details: HEK-Blue IL-17A reporter cell line, SEAP readout at A630, 20 hours incubation with IL-17A/A; top concentration 10 uM, 1 uM or 0.3 uM; read-out: IL-17A/A inhibition (pIC50) (converted)
The following molecules are shown together with reported IC50 values.
Reported endpoint: IC50

INSERT INTO measurements (molecule, measured) VALUES
  ('CCn1nccc1C(=O)N[C@H](C(=O)Nc1ccc([C@H](C)[C@@H](NC(=O)C(F)(F)CC)C(=O)N2CCN(C)[C@H](C)C2)cc1F)[C@H]1CC[C@H](C)CC1 [Compound 481]', '< 10 nM'),
  ('CCn1nccc1C(=O)N[C@H](C(=O)Nc1ccc(C[C@@H](NC(=O)c2ccnn2C2CCN(C)CC2)C(=O)N2CCN(C)CC2)cc1F)C1CCCCC1 [Compound 321]', '10 to 100 nM'),
  ('CCc1nonc1C(=O)N[C@H](C(=O)Nc1ccc([C@H](C)[C@@H](NC(=O)N(CC)C2CC2)C(=O)N2CCN(C)CC2)cc1F)[C@H]1CC[C@H](C)CC1 [Compound 574]', '< 10 nM'),
  ('CCC(=O)N[C@@H](C(=O)N[C@@H](C)C1CC1)[C@@H](C)c1ccc(NC(=O)[C@@H](NC(=O)c2ccnn2CC)C2CCCCCC2)c(F)c1 [Compound 537]', '10 to 100 nM'),
  ('COc1ncc(C(F)(F)C(=O)N[C@H](C(=O)Nc2ccc([C@H](C)[C@@H](NC(=O)c3cnns3)C(=O)N3CCN(C)CC3)cc2F)[C@H]2CC[C@H](C)CC2)cn1 [Compound 621]', '10 to 100 nM');

---

Target: IL-17A/A (Homo sapiens)
Construct: purchased Genscript Z03228
Assay: IL-17A/A HEK-Blue Cell Assay
Type: cell-based
Conditions: HEK-Blue IL-17A reporter cell line, SEAP readout at A630, 20 hours incubation with IL-17A/A; top concentration 10 uM, 1 uM or 0.3 uM; read-out: IL-17A/A inhibition (pIC50) (converted)
The following compounds are shown together with reported IC50 values.
Reported endpoint: IC50

INSERT INTO assay_data (compound, measured) VALUES
  ('CCC(=O)N[C@@H](C(=O)N1CCC(CC(=O)O)CC1)[C@@H](C)c1ccc(NC(=O)[C@@H](NC(=O)c2ccnn2CC)[C@H]2CC[C@H](C)CC2)c(F)c1', '0.01 to 0.1 µM'),
  ('C[C@@H](c1ccc(NC(=O)[C@@H](NC(=O)C(F)(F)c2cccc(C#N)c2)C2CCCCC2)c(F)c1)[C@@H](NC(=O)c1cnns1)C(=O)N1CCN(C)CC1', '< 0.01 µM'),
  ('CCC(=O)N[C@H](C(=O)N1CCN(C)CC1)[C@H](C)c1ccc(NC(=O)[C@@H](NC(=O)c2ccnn2CC)[C@@H](C)OC2CCCCC2)c(F)c1', '0.01 to 0.1 µM'),
  ('CCC(=O)N[C@@H](C(=O)N1CCN(C)CC1)[C@@H](C)c1ccc(NC(=O)[C@@H](NC(=O)c2conc2CC)[C@H]2CC[C@H](C)CC2)c(F)c1', '0.01 to 0.1 µM'),
  ('CCC(=O)N[C@@H](C(=O)N1CCN(C)CC1)[C@@H](C)c1ccc(NC(=O)[C@@H](NC(=O)c2ccnn2CC)C2CCCCCC2)cc1', '0.01 to 0.1 µM'),
  ('CCc1nonc1C(=O)N[C@H](C(=O)Nc1ccc([C@H](C)[C@@H](NC(=O)c2c(OC)cnn2CC)C(=O)N2CCN(C)CC2)cc1F)[C@H]1CC[C@H](C)CC1', '0.01 to 0.1 µM'),
  ('CCC(=O)NC(C(=O)N1CCN(C(C)C)CC1)[C@@H](C)c1ccc(NC(=O)[C@@H](NC(=O)c2ccnn2CC)[C@H]2CC[C@H](C)CC2)c(F)c1 (single isomer, unassigned)', '0.01 to 0.1 µM'),
  ('CCn1nccc1C(=O)N[C@H](C(=O)Nc1ccc([C@H](C)[C@@H](NC(=O)c2cnns2)C(=O)N2CCNC3(CC3)C2)cc1F)[C@H]1CC[C@H](C)CC1', '0.01 to 0.1 µM'),
  ('[2H]C([2H])([2H])N1CCN(C(=O)[C@H](NC(=O)CC)[C@@H](C)c2ccc(NC(=O)[C@@H](NC(=O)c3ccnn3CC)[C@H]3CC[C@H](C)CC3)c(F)c2)CC1', '< 0.01 µM'),
  ('C[C@@H](c1ccc(NC(=O)[C@@H](NC(=O)c2ccnn2C2COC2)[C@H]2CC[C@H](C)CC2)c(F)c1)[C@@H](NC(=O)c1cnns1)C(=O)N1CCN(C)CC1', '0.01 to 0.1 µM'),
  ('CCC(=O)N[C@@H](C(=O)N1CCN(C)CC1)[C@@H](C)c1ccc(NC(=O)[C@@H](NC(=O)c2nonc2C)[C@H]2CC[C@H](C)CC2)c(F)c1', '0.01 to 0.1 µM');

---

Target: IL-17A/A (Homo sapiens, UniProt Q16552)
Construct: purchased Genscript Z03228
Sequence (Q16552 24-155): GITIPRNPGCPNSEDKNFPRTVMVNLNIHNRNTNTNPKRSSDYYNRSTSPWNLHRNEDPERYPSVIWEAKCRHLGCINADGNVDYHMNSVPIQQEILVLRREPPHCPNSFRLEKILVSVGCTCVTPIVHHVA
Test: IL-17A/A HEK-Blue Cell Assay
Type: cell-based
Conditions: HEK-Blue IL-17A reporter cell line, SEAP readout at A630, 20 hours incubation with IL-17A/A; top concentration 10 uM, 1 uM or 0.3 uM; read-out: IL-17A/A inhibition (pIC50) (converted)
The following compounds are shown together with reported IC50 values.
Reported endpoint: IC50

INSERT INTO measurements (molecule_smiles, reported_endpoint, measured) VALUES
  ('CCC(=O)N[C@H](Cc1ccc(NC(=O)[C@@H](NC(=O)c2conc2CNC(C)=O)C2CCCCC2)c(F)c1)C(=O)N1CCN(C)CC1', 'IC50', '100 to 10000 nM'),
  ('CCC(=O)N[C@@H](C(=O)N1CCN(C)CC1)[C@@H](C)c1ccc(NC(=O)[C@@H](NC(=O)c2nonc2CC)[C@H](C)[C@H]2CC[C@H](C)CC2)c(F)c1', 'IC50', '< 10 nM'),
  ('CCC(=O)N[C@@H](C(=O)N1CCN(C)CC1)[C@@H](C)c1ccc(NC(=O)[C@@H](NC(=O)C(F)(F)c2ccc(OC)nc2)C2CCCCCC2)c(F)c1', 'IC50', '10 to 100 nM'),
  ('CCc1nonc1C(=O)N[C@H](C(=O)Nc1ccc([C@H](C)[C@@H](NC(=O)N(C)C2CC2)C(=O)N2CCN(C)[C@@H](C)C2)cc1F)[C@H]1CC[C@H](C)CC1', 'IC50', '10 to 100 nM'),
  ('CCn1nccc1C(=O)N[C@H](C(=O)Nc1ccc([C@H](C)[C@@H](NC(=O)c2nonc2C)C(=O)N2CCN(C)CC2)cc1F)[C@H]1CC[C@H](C)CC1', 'IC50', '10 to 100 nM'),
  ('CCn1nccc1C(=O)N[C@H](C(=O)Nc1ccc([C@H](C)[C@@H](NC(=O)c2conc2C2CCNCC2)C(=O)N2CCC(C)(O)CC2)cc1F)[C@H]1CC[C@H](C)CC1', 'IC50', '10 to 100 nM'),
  ('CCC(=O)N[C@@H](C(=O)N1CCN(C)CC1)[C@@H](C)c1ccc(NC(=O)[C@@H](NC(=O)C(F)(F)c2ccc(OC)nc2)C2CCCCC2)c(F)c1', 'IC50', '10 to 100 nM'),
  ('C[C@@H](c1ccc(NC(=O)[C@@H](NC(=O)C(F)(F)c2cccc(C#N)c2)C2CCCCC2)c(F)c1)[C@@H](NC(=O)NC1CC1)C(=O)N1CCN(C)CC1', 'IC50', '< 10 nM'),
  ('C[C@@H](c1ccc(NC(=O)[C@@H](NC(=O)c2coc3ccncc23)[C@H]2CC[C@H](C)CC2)c(F)c1)[C@@H](NC(=O)c1cnns1)C(=O)N1CCN(C)CC1', 'IC50', '10 to 100 nM'),
  ('COc1ccc(C(F)(F)C(=O)N[C@H](C(=O)Nc2ccc([C@H](C)[C@@H](NC(=O)c3cnns3)C(=O)N3CCN(C)CC3)cc2F)C2CCCCCC2)cn1', 'IC50', '< 10 nM'),
  ('CCC(=O)N[C@@H](C(=O)N1CCN(C)CC1)[C@@H](C)c1ccc(NC(=O)[C@@H](NC(=O)C(F)(F)c2cccc(C#N)c2)[C@H]2CC[C@H](C)CC2)c(F)c1', 'IC50', '< 10 nM');

---

The following compounds are shown together with reported IC50 values.
Target: IL-17A/A (Homo sapiens, UniProt Q16552)
Construct: purchased Genscript Z03228
Assay: IL-17A/A HEK-Blue Cell Assay
Type: cell-based
Conditions: HEK-Blue IL-17A reporter cell line, SEAP readout at A630, 20 hours incubation with IL-17A/A; top concentration 10 uM, 1 uM or 0.3 uM; read-out: IL-17A/A inhibition (pIC50) (converted)
Reported endpoint: IC50

INSERT INTO measurements (compound, measured) VALUES
  ('CC(C)n1nccc1C(=O)N[C@H](C(=O)Nc1ccc([C@H](C)[C@@H](NC(=O)c2ccnn2C2CCC2)C(=O)N2CCN(C)CC2)cc1F)[C@H]1CC[C@H](C)CC1', '< 0.01 µM'),
  ('CCn1nccc1C(=O)N[C@H](C(=O)Nc1ccc([C@H](C)[C@@H](NC(=O)[C@@H](C)F)C(=O)N2CCN(C)CC2)cc1F)[C@H]1CC[C@H](C)CC1', '0.01 to 0.1 µM'),
  ('CCC(=O)N[C@@H](C(=O)N1CCC(C)(O)CC1)[C@@H](C)c1ccc(NC(=O)[C@@H](NC(=O)c2conc2CC)C2CCCCCC2)c(F)c1', '< 0.01 µM'),
  ('CCn1nccc1C(=O)N[C@H](C(=O)Nc1ccc([C@H](C)[C@@H](NC(=O)C(C)C2CC2)C(=O)N2CCN(C)C(C)(C)C2)cc1F)[C@H]1CC[C@H](C)CC1 (some centres unmarked)', '< 0.01 µM'),
  ('CCC(=O)N[C@@H](C(=O)N1CCN(C)CC1)[C@@H](C)c1ccc(NC(=O)[C@@H](NC(=O)c2ccnn2C2COC2)[C@H]2CC[C@H](C)CC2)c(F)c1', '0.01 to 0.1 µM'),
  ('CCn1nccc1C(=O)N[C@H](C(=O)Nc1ccc([C@H](C)[C@@H](NC(=O)c2cnsc2)C(=O)N2CCN(C)CC2)cc1F)C1CCCCC1', '0.01 to 0.1 µM'),
  ('CCn1nccc1C(=O)N[C@H](C(=O)Nc1ccc([C@H](C)[C@@H](NC(=O)c2cc(C#N)cs2)C(=O)N2CCN(C)CC2)cc1F)C1CCCCC1', '0.1 to 10 µM'),
  ('CCC(=O)N[C@@H](C(=O)N1CCN(C)CC1)[C@@H](C)c1ccc(NC(=O)[C@@H](NC(=O)c2cccn2C(C)C)C2CCCCCC2)c(F)c1', '< 0.01 µM'),
  ('CCC(=O)N[C@@H](C(=O)N1CCN(C)CC1)[C@@H](C)c1ccc(NC(=O)[C@@H](NC(=O)C(F)(F)c2cncc(OC)c2)C2CCCCCC2)c(F)c1', '0.01 to 0.1 µM'),
  ('CCC(=O)N[C@@H](C(=O)NC1CCOCC1)[C@@H](C)c1ccc(NC(=O)[C@@H](NC(=O)c2ccnn2CC)C2CCCCC2)c(F)c1', '0.01 to 0.1 µM'),
  ('CCc1nonc1C(=O)N[C@H](C(=O)Nc1ccc([C@H](C)[C@@H](NC(=O)N2CCCC2)C(=O)N2CCN(C)CC2)cc1F)[C@H]1CC[C@H](C)CC1', '0.01 to 0.1 µM');
